target_or_system: NgTet1 (Naegleria gruberi, UniProt D2W6T1)
Construct: His6-tagged full-length Naegleria gruberi NgTet1 (321 a. a.) protein with a thrombin cleavage site; made in house; host or cells: E. coli BL21(DE3)
Sequence (D2W6T1 1-321): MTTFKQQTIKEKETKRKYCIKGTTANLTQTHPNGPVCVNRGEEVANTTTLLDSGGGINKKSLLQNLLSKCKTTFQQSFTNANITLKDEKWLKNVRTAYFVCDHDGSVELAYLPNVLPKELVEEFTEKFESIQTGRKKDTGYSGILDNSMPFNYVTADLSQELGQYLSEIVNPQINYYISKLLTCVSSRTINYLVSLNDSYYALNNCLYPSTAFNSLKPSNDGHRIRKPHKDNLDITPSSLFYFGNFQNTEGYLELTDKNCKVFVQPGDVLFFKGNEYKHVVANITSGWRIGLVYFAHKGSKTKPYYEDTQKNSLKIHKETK
procedure_details: biochemical
conditions_used: 2OG decarboxylation with 20 µM 5HC DNA; 5 μM NgTet1, 50 μM 2OG; read-out: IC50, 5HC DNA, NMR
Reported IC50 is given for each of the following compounds.
property: IC50 (µM)

> print(dat)
                                   compound                          target.or.system  property  value.unit  result
1  O=C(O)CNC(=O)C(=O)O [NOG, N-oxalylglycine]  NgTet1 (Naegleria gruberi, UniProt D2W6T1)      IC50          µM    23.4
2  O=C(O)c1ccnc(C(=O)O)c1 [2,4-PDCA, 2,4-pyridinedicarboxylic acid]  NgTet1 (Naegleria gruberi, UniProt D2W6T1)      IC50          µM    4.27

---

target_or_system: TET2CDΔLCI (Homo sapiens, UniProt Q6N021)
Construct: FLAG-[thrombin cleavage site]-SUMO (N); made in house; host or cells: E. coli
procedure_details: AlphaScreen competition assay with biotinylated 5mC dsDNA
Type: binding
conditions_used: 12.5 nM TET2CDΔLCI, 12.5 nM 5mC dsDNA
property: IC50 (µM)

substance	result
AT DNA: double-stranded self-complementary 5'-ACC ACA TGT GGT-3', CpG replaced by ApT (DNA ACCACATGTGGT; DNA, backbone and methylation of C not given here; self-complementary duplex)	4.57
5HC DNA: non-methylated DNA of the same sequence, 5'-ACC ACC GGT GGT-3', non-substrate (DNA ACCACCGGTGGT; DNA, backbone not given here)	8.91

---

target_or_system: NgTet1 (Naegleria gruberi)
Construct: His6-tagged full-length Naegleria gruberi NgTet1 (321 a. a.) protein with a thrombin cleavage site; made in house; host or cells: E. coli BL21(DE3)
procedure_details: biochemical
conditions_used: 2OG decarboxylation with 20 µM 5mC DNA; 5 μM NgTet1, 50 μM 2OG; read-out: IC50, 5mC DNA, NMR
property: IC50 (µM)

> print(dat)
          query.smiles  property  value.unit  result
1  O=C(O)CNC(=O)C(=O)O      IC50          µM     4.9

---

target_or_system: NgTet1 (Naegleria gruberi, UniProt D2W6T1)
Construct: His6-tagged full-length Naegleria gruberi NgTet1 (321 a. a.) protein with a thrombin cleavage site; made in house; host or cells: E. coli BL21(DE3)
Sequence (D2W6T1 1-321): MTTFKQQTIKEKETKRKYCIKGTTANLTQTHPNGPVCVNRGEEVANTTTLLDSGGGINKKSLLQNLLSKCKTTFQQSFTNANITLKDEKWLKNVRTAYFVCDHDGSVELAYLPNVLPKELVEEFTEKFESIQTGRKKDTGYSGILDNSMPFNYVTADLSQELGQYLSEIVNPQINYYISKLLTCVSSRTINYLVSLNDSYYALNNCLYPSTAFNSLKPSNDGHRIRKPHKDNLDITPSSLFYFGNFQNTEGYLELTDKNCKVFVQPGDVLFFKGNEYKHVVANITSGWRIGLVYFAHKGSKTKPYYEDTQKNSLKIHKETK
procedure_details: AlphaScreen competition assay with biotinylated 5mC dsDNA
Format: binding
conditions_used: 100 nM NgTet1, 50 nM 5mC dsDNA

substance	target_or_system	IC50 [µM]
5HC DNA: non-methylated DNA of the same sequence, 5'-ACC ACC GGT GGT-3', non-substrate (DNA ACCACCGGTGGT; DNA, backbone not given here)	NgTet1 (Naegleria gruberi, UniProt D2W6T1)	57.5
AT DNA: double-stranded self-complementary 5'-ACC ACA TGT GGT-3', CpG replaced by ApT (DNA ACCACATGTGGT; DNA, backbone and methylation of C not given here; self-complementary duplex)	NgTet1 (Naegleria gruberi, UniProt D2W6T1)	56.2

---

target_or_system: NgTet1 (Naegleria gruberi, UniProt D2W6T1)
Construct: His6-tagged full-length Naegleria gruberi NgTet1 (321 a. a.) protein with a thrombin cleavage site; made in house; host or cells: E. coli BL21(DE3)
procedure_details: biochemical
conditions_used: IC50, 5mC DNA, NMR, 2OG decarboxylation with 20 µM 5mC DNA; 5 μM NgTet1, 50 μM 2OG
Method: Activity was normalised against reactions containing vehicle (DMSO). […] N. d.: not determined; AS: AlphaScreen. All ^1H NMR spectra were recorded at 25 °C using D2O as a reference for internal deuterium lock on a Bruker Avance III 700 MHz equipped with an inverse TCI cryoprobe in 3 or 5 mm diameter tubes with a total sample volume of 160 or 565 μL, respectively. […]
pIC50: −log10 of the molar value. Positions of bridges follow the written chain, without caps; N, C: chain ends. Non-standard residues stand in square brackets, D forms with d. Residues, ends and D or L forms follow the SMILES beside them.

molecule	pIC50
O=C(O)c1ccc(O)c2ncccc12 [IOX1, 5-carboxy-8-hydroxyquinoline]	3.91
CC[C@H](C)[C@@H]1NC(=O)[C@H](CC(C)C)NC(=O)[C@@H](Cc2ccc(O)cc2)NC(=O)CSC[C@@H](C(N)=O)NC(=O)[C@H](CO)NC(=O)[C@H](Cc2c[nH]cn2)NC(=O)[C@H](CCC(=O)O)NC(=O)[C@H](Cc2c[nH]c3ccccc23)NC(=O)[C@H](Cc2c[nH]c3ccccc23)NC(=O)[C@H]([C@@H](C)O)NC(=O)[C@H](Cc2ccc(O)cc2)NC(=O)[C@H](Cc2ccc(O)cc2)NC(=O)[C@H](C)NC(=O)[C@H](Cc2ccc(O)cc2)NC1=O [TiP1] ({CH2CO}-[dY]LIYAYYTWWEHSC-NH2; thioether N-14)	4.54
O=C(O)c1ccnc(C(=O)O)c1 [2,4-PDCA, 2,4-pyridinedicarboxylic acid]	5.61

---

target_or_system: NgTet1 (Naegleria gruberi, UniProt D2W6T1)
Construct: His6-tagged full-length Naegleria gruberi NgTet1 (321 a. a.) protein with a thrombin cleavage site; made in house; host or cells: E. coli BL21(DE3)
Sequence (D2W6T1 1-321): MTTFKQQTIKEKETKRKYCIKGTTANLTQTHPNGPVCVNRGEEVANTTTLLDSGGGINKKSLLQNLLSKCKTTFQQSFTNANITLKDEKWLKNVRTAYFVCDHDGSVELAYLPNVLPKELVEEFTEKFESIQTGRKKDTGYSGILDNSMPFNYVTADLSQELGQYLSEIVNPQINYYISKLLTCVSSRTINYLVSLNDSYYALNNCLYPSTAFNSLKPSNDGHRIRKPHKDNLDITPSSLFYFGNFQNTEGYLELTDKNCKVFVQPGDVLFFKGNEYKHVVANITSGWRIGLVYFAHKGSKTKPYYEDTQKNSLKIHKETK
procedure_details: biochemical
conditions_used: IC50, 5HC DNA, NMR, 2OG decarboxylation with 20 µM 5HC DNA; 5 μM NgTet1, 50 μM 2OG
property: IC50 (µM)

> print(dat)
                                   molecule  property  result
1  O=C(O)c1ccc(O)c2ncccc12 [IOX1, 5-carboxy-8-hydroxyquinoline]      IC50     110

Cited source: paper PMC11662004
